- experimental.system: HepR (Xanthomonas campestris)
- Construct: 147-amino acid protein, His-tagged HepR (pET28a), dimer
- protocol.description: ITC with purified His-HepR (Kd […]); confirmed by SPR (Kd […]); SA inhibits HepR–Phep binding in EMSA
result.type: Kd (µM)
Give bare numbers, in µM.

Item `O=C(O)c1ccccc1O` was tested on HepR (Xanthomonas campestris); the reported Kd is 19.3
